Quick list: melting point per entry.
MEASURED QUANTITY: melting point

[[record]]
smi = "O=S(=O)(Nc1nccs1)c1ccc(N=c2[nH]c3nc4ccccc4nc3s2)cc1"
result = "238 to 240 °C"

[[record]]
smi = "Cc1cc(C)nc(NS(=O)(=O)c2ccc(N=c3[nH]c4nc5ccccc5nc4s3)cc2)n1"
result = "246 to 248 °C"

[[record]]
smi = "CC(=O)NS(=O)(=O)c1ccc(N=c2[nH]c3nc4ccccc4nc3s2)cc1"
result = "245 to 247 °C"

[[record]]
smi = "O=S(=O)(Nc1ncccn1)c1ccc(N=c2[nH]c3nc4ccccc4nc3s2)cc1"
result = "223 to 225 °C"

[[record]]
smi = "Cc1ccnc(NS(=O)(=O)c2ccc(N=c3[nH]c4nc5ccccc5nc4s3)cc2)n1"
result = "199 to 201 °C"

[[record]]
smi = "Cc1cc(NS(=O)(=O)c2ccc(N=c3[nH]c4nc5ccccc5nc4s3)cc2)no1"
result = "186 to 188 °C"

[[record]]
smi = "N=C(N)NS(=O)(=O)c1ccc(N=c2[nH]c3nc4ccccc4nc3s2)cc1"
result = "> 260 °C"

[[record]]
smi = "COc1cc(NS(=O)(=O)c2ccc(N=c3[nH]c4nc5ccccc5nc4s3)cc2)nc(OC)n1"
result = "249 to 251 °C"

[[record]]
smi = "NS(=O)(=O)c1ccc(N=c2[nH]c3nc4ccccc4nc3s2)cc1"
result = "165 to 167 °C"


###

Quick list: IC50 per entry.
Test system: HepG2 cells
ASSAY INFO: HepG2 cell viability, SRB assay
Format: cell-based
CONDITION SET: Homo sapiens, 72 h, SRB, read-out: HepG2 IC50
MEASURED QUANTITY: IC50

[[record]]
molecule = "O=S(=O)(Nc1ccccn1)c1ccc(N=c2[nH]c3nc4ccccc4nc3s2)cc1 [Compound 4d]"
result = "4.31 µM"

[[record]]
molecule = "CNC(=O)c1cc(Oc2ccc(NC(=O)Nc3ccc(Cl)c(C(F)(F)F)c3)cc2)ccn1 [Sorafenib, reference compound]"
result = "2.97 µM"

[[record]]
molecule = "Cc1cc(NS(=O)(=O)c2ccc(N=c3[nH]c4nc5ccccc5nc4s3)cc2)no1 [Compound 4f]"
result = "> 100 µM"


###

Here we list compounds with their recorded IC50 when tested on VEGFR-2 (Homo sapiens, UniProt P35968).
Sequence (P35968 20-1356): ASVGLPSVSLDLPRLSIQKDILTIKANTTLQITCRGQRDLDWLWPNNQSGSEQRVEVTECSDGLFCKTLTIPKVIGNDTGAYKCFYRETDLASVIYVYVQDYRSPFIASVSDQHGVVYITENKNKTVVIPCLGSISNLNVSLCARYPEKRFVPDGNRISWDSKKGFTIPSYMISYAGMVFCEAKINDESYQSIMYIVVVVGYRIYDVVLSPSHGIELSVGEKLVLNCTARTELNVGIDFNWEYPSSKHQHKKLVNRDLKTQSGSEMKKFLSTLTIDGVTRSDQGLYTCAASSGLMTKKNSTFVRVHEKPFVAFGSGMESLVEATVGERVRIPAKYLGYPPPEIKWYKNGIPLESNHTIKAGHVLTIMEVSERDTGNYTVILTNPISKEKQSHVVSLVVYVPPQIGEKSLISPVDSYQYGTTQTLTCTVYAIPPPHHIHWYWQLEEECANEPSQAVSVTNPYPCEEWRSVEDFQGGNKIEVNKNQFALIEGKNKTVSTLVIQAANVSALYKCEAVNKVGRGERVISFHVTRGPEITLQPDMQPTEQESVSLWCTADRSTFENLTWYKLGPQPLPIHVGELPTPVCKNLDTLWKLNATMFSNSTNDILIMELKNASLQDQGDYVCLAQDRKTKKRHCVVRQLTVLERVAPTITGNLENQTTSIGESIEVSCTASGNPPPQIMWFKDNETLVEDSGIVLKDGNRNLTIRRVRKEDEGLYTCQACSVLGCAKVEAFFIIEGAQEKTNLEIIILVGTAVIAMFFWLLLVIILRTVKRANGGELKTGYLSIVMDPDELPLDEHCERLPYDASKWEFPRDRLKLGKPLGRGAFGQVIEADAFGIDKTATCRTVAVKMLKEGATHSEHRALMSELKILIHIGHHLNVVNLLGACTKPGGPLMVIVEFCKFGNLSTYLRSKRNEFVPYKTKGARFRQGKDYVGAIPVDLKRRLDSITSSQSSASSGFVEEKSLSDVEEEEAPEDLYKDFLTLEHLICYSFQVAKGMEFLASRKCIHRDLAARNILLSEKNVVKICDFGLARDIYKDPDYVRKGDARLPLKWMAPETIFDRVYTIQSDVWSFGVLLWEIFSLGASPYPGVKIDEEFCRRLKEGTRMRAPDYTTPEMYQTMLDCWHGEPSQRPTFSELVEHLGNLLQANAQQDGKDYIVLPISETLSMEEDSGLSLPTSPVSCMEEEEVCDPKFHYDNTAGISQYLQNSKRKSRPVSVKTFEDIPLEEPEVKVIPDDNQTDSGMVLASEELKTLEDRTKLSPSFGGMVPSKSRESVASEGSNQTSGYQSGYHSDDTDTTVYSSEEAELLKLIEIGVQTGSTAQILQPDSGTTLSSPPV
MEASURED QUANTITY: IC50

[[record]]
compound = "CC(=O)NS(=O)(=O)c1ccc(N=c2[nH]c3nc4ccccc4nc3s2)cc1 [Compound 4b]"
result = "132 nM"

[[record]]
compound = "Cc1cc(C)nc(NS(=O)(=O)c2ccc(N=c3[nH]c4nc5ccccc5nc4s3)cc2)n1 [Compound 4i]"
result = "288 nM"

[[record]]
compound = "Cc1cc(NS(=O)(=O)c2ccc(N=c3[nH]c4nc5ccccc5nc4s3)cc2)no1 [Compound 4f]"
result = "83.3 nM"

[[record]]
compound = "Cc1ccnc(NS(=O)(=O)c2ccc(N=c3[nH]c4nc5ccccc5nc4s3)cc2)n1 [Compound 4h]"
result = "217 nM"

[[record]]
compound = "O=S(=O)(Nc1ccccn1)c1ccc(N=c2[nH]c3nc4ccccc4nc3s2)cc1 [Compound 4d]"
result = "61 nM"

[[record]]
compound = "O=S(=O)(Nc1nccs1)c1ccc(N=c2[nH]c3nc4ccccc4nc3s2)cc1 [Compound 4g]"
result = "99.8 nM"

